target: interaction of human SOS1 (SOS1) with human K-RasG12C (Homo sapiens (Human), UniProt Q07889); assay: Biochemical assay: hK-RasG12C interaction assay with hSOS1 (HTRF); conditions: GST-hK-RasG12C with His-hSOS1, 60 min incubation at 20° C., mean, read-out: K-RasG12C - SOS interaction assay IC50 (mean)
Sequence (Q07889 564-1049 limits assumed): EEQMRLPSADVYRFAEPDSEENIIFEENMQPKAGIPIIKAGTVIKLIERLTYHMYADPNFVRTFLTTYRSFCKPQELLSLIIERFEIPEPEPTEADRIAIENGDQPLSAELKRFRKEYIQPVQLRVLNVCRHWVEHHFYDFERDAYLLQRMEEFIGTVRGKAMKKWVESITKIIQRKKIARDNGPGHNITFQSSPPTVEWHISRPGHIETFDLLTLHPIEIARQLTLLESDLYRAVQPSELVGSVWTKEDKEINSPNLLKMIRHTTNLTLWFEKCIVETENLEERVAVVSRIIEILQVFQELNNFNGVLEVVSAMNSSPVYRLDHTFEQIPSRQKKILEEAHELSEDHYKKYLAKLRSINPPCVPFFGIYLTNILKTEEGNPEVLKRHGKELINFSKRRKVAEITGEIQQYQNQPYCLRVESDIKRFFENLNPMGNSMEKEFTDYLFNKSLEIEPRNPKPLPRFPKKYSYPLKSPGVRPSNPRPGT
EXPERIMENTAL ENDPOINT: IC50 (nM)

Cc1nc(N[C@H](C)c2cccc(C(F)(F)F)c2C)c2cc(P3(=O)CCN(C=O)CC3)ncc2n1; 6.37
CCP(C)(=O)c1cc2c(N[C@H](C)c3cccc(C(F)(F)CO)c3F)nc(C)nc2cn1 (single isomer, unassigned) [Example 132]; 11.7

I. [2H]C([2H])(O)C(F)(F)c1cccc([C@@H](C)Nc2nc(C)nc3cnc(P4(=O)CCCC4)cc23)c1F
II. Cc1nc(N[C@H](C)c2cccc(C(F)(F)F)c2C)c2cc(P3(=O)CCN(C(=O)NC4CC4)CC3)ncc2n1
III. Cc1nc(N[C@H](C)c2cccc(C(F)(F)F)c2C)c2cc(P3(=O)CCN(Cc4ccccc4)CC3)ncc2n1
IV. Cc1nc(N[C@H](C)c2cccc(C(F)F)c2F)c2cc(P(=O)(C(C)C)C(C)C)c(C)nc2n1
V. Cc1nc(N[C@H](C)c2cccc(C(F)F)c2F)c2cc(P3(=O)CCCC3)ncc2n1
Reorder the items by IC50, least to greatest. API: response body holds the labels in the requested order. II, I, V, IV, III

1. Cc1nc(N[C@H](C)c2cccc(C(F)F)c2F)c2cc(P3(=O)CCN(C(N)=O)CC3)ncc2n1
2. Cc1nc(N[C@H](C)c2cccc(C(F)(F)F)c2C)c2cc(P(C)(C)=O)ncc2n1
Field: lower recorded IC50 (choose 1 or 2 ) Bench note: the answer is the label of the chosen record. 1
(1: 8.38 nM, 2: 20.6 nM)

P. Cc1nc(N[C@H](C)c2cccc(C(F)F)c2F)c2cc(P3(=O)CCN(C(=O)C4COC4)CC3)ncc2n1
Q. Cc1nc(N[C@H](C)c2cccc(C(F)(F)CO)c2F)c2cc(P(C)(C)=O)nc(C)c2n1
Field: lower recorded IC50 (choose P or Q ) Bench note: the answer is the label of the chosen record. P
(P: 7.89 nM, Q: 16.7 nM)

1. Cc1nc(N[C@H](C)c2cccc(C(F)(F)C(C)O)c2F)c2cc(P(C)(=O)C(C)C)ncc2n1 (single isomer, unassigned) [Example 81]
2. CCP(C)(=O)c1cc2c(N[C@H](C)c3cccc(C(F)(F)C(C)O)c3F)nc(C)nc2cn1 (single isomer, unassigned) [Example 74]
3. Cc1nc(N[C@H](C)c2cccc(C(F)F)c2F)c2cc(P3(=O)CCN(Cc4ccccc4)CC3)ncc2n1
4. Cc1nc(N[C@H](C)c2cccc(C(F)(F)F)c2C)c2cc(P3(=O)CCN(C(=O)N(C)C)CC3)ncc2n1
5. CCP(=O)(CC)c1cc2c(N[C@H](C)c3cccc(C(F)(F)F)c3C)nc(C)nc2cn1
Order the 5 compounds from highest to lowest IC50. API: response body holds the labels in the requested order. 3, 5, 2, 1, 4

a. Cc1nc(N[C@H](C)c2cccc(C(F)(F)F)c2)c2cc(P3(=O)CCN(C(=O)C(F)F)CC3)ncc2n1
b. CCP(=O)(CC)c1cc2c(N[C@H](C)c3cccc(C(F)(F)C(C)O)c3F)nc(C)nc2cn1 (stereo in doubt)
Field: lower recorded IC50 (choose a or b ) Bench note: the answer is the label of the chosen record. a
(a: 9.64 nM, b: 26.6 nM)
